Target desc: Nuclear receptor ROR-gamma (Homo sapiens, UniProt P51449)
Sequence (P51449 whole entry, the tested form may be a part): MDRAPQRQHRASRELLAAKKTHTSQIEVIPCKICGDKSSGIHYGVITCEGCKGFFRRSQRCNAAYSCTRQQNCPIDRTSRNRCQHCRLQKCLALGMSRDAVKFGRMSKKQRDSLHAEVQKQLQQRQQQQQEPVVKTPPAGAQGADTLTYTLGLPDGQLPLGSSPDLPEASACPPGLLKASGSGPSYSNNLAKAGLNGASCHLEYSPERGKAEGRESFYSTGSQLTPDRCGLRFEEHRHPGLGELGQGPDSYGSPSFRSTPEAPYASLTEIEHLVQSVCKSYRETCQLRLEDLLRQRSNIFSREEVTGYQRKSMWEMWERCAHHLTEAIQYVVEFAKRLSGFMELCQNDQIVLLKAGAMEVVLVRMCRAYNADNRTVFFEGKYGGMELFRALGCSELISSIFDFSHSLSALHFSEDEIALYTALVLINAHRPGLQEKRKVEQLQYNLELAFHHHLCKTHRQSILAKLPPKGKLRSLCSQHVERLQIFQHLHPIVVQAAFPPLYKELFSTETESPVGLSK
Protocol details: Agonist activity at APC-labeled RORgammat LBD (unknown origin) incubated for 1 hr in presence of europium labeled co-activator SRC1 by dual FRET assay
pEC50: −log10 of the molar value.
I would appreciate it if you labelled entries Met when pEC50 is 7 or higher, otherwise Not met.

{"Compound": "CCCN(Cc1ccccc1)Cc1ccc(NC(=O)NCc2ccc(S(=O)(=O)CC)cc2)cc1", "Discrete label": "Met"}
{"Compound": "CCCN(Cc1ccc(NC(=O)Cc2ccc(S(=O)(=O)CC)cc2)cc1)CC1CCCO1 (stereo not drawn)", "Discrete label": "Not met"}
{"Compound": "CCS(=O)(=O)c1ccc(CC(=O)Nc2ccc(NCCc3ccccc3)cc2)cc1", "Discrete label": "Met"}
{"Compound": "CCCCN(Cc1ccccc1)Cc1ccc(NC(=O)Cc2ccc(S(=O)(=O)CC)cc2)cc1", "Discrete label": "Met"}
{"Compound": "CCCN(Cc1ccc(NC(=O)Cc2ccc(S(=O)(=O)CC)cc2)cc1)CC1CC1", "Discrete label": "Not met"}
{"Compound": "CCCN(Cc1ccc(NC(=O)Cc2ccc(S(=O)(=O)CC)cc2)cc1)Cc1cccs1", "Discrete label": "Met"}

###

Target desc: Nuclear receptor ROR-gamma (Homo sapiens)
Protocol details: Agonist activity at APC-labeled RORgammat LBD (unknown origin) incubated for 1 hr in presence of europium labeled co-activator SRC1 by dual FRET assay
pEC50: −log10 of the molar value.
I would appreciate it if you labelled entries Condition met when pEC50 is 7 or higher, otherwise Condition not met.

{"Test smiles": "CCCN(Cc1ccccc1)Cc1ccc(NC(=O)Cc2ccc(C(=O)O)cc2)cc1", "Target desc": "Nuclear receptor ROR-gamma (Homo sapiens)", "Discrete label": "Condition not met"}
{"Test smiles": "CCS(=O)(=O)c1ccc(CC(=O)Nc2ccc(CN(Cc3ccccc3)CC3CCC3)cc2)cc1", "Target desc": "Nuclear receptor ROR-gamma (Homo sapiens)", "Discrete label": "Condition met"}
{"Test smiles": "CCCN(Cc1ccc(NC(=O)Cc2ccc(S(=O)(=O)CC)cc2)cc1)Cc1ccccc1C", "Target desc": "Nuclear receptor ROR-gamma (Homo sapiens)", "Discrete label": "Condition met"}
{"Test smiles": "CCCN(Cc1ccc(NC(=O)Cc2ccc(S(=O)(=O)CC)cc2)cc1)Cc1ccccc1Cl", "Target desc": "Nuclear receptor ROR-gamma (Homo sapiens)", "Discrete label": "Condition met"}
{"Test smiles": "CCCN(Cc1ccccc1)Cc1ccc(NC(=O)Cc2ccc(S(=O)(=O)CC)cn2)cc1", "Target desc": "Nuclear receptor ROR-gamma (Homo sapiens)", "Discrete label": "Condition not met"}
{"Test smiles": "CCS(=O)(=O)c1ccc(CC(=O)Nc2ccc(CN(Cc3ccccc3)CC3CC3)c(Cl)c2)cc1", "Target desc": "Nuclear receptor ROR-gamma (Homo sapiens)", "Discrete label": "Condition met"}
{"Test smiles": "CCCN(Cc1ccccc1)Cc1ccc(NC(=O)Cc2ccc(S(=O)(=O)CC)cc2)cc1Cl", "Target desc": "Nuclear receptor ROR-gamma (Homo sapiens)", "Discrete label": "Condition met"}
{"Test smiles": "CCCN(Cc1ccc(NC(=O)Cc2ccc(S(=O)(=O)CC)cc2)cc1)CC1CCC1", "Target desc": "Nuclear receptor ROR-gamma (Homo sapiens)", "Discrete label": "Condition not met"}
